System: BALB/C mice
Test: In vivo expression, whole-body luminescence (IVIS)
Conditions: cirRNA (SEQ ID NO: 1) LNPs, BALB/C mice
Assay Endpoint: In vivo Expression (Whole Body)
The answer should be a number; do not append a unit.

Query: Any idea what In vivo Expression (Whole Body) was measured for CCCCCCCCC(CCCCCCCC)OC(=O)CCCCCCCN(CCCCCCCCOC(=O)C(CCCCCC)CCCCCCCC)CCOC(=O)NCCN(C)C (centres unmarked) ?
Reply: 2.03E+09

Query: Any idea what In vivo Expression (Whole Body) was measured for CCCCCCCCC(CCCCCC)C(=O)OCCCCCCCCN(CCCCCCCCOC(=O)C(CCCCCC)CCCCCCCC)CCCNCCCN(CC)CC (centres unmarked) ?
Reply: 1.79E+06

Query: Any idea what In vivo Expression (Whole Body) was measured for CCCCCCCCC(CCCCCC)C(=O)OCCCCCCCCN(CCCCCCCCOC(=O)C(CCCCCC)CCCCCCCC)CCCOC(=O)NCCN1CCC1 (centres unmarked) ?
Reply: 4.22E+06

Query: Any idea what In vivo Expression (Whole Body) was measured for CCCCC/C=C\C/C=C\CCCCCCCCN(CCCCCCCC(=O)OC(CCCCCCCC)CCCCCCCC)CCOC(=O)NCCCn1ccnc1 ?
Reply: 2.04E+08

Query: Any idea what In vivo Expression (Whole Body) was measured for CCCCCCCCCCC(CCCCCCCC)COC(=O)CCCCCN(CCCCCC(=O)OCC(CCCCCCCC)CCCCCCCCCC)CCOC(=O)NCCCN(C)C (centres unmarked) ?
Reply: 6.43E+05

Query: Any idea what In vivo Expression (Whole Body) was measured for CCCCCCCCC(CCCCCCCC)OC(=O)CCCCCCCN(CCCCCCCCOC(=O)C(CCCCCC)CCCCCCCC)CCCOC(=O)NCCc1ncc[nH]1 (centres unmarked) ?
Reply: 1.01E+07

Query: Any idea what In vivo Expression (Whole Body) was measured for CCCCCCCCCCCOC(=O)CCCCCN(CCCCCCCCOC(=O)C(CCCCCC)CCCCCCCC)CCOC(=O)NCCCN(C)C (centres unmarked) ?
Reply: 5.05E+05

Query: Any idea what In vivo Expression (Whole Body) was measured for CCCCCCCC/C=C\CCCCCCCCN(CCCCCCCCOC(=O)C(CCCCCC)CCCCCCCC)CCOC(=O)NCCCN(C)C (centres unmarked) ?
Reply: 1.34E+06

Query: Any idea what In vivo Expression (Whole Body) was measured for CCCCCCCCCCCOC(=O)CCCCCN(CCCCCCCC(=O)OC(CCCCCCCC)CCCCCCCC)CCOC(=O)NCCN1CCCCC1 ?
Reply: 1.11E+08

Query: Any idea what In vivo Expression (Whole Body) was measured for CCCCCCCCCC(=O)OCCCCCCCN(CCCCCCCCOC(=O)C(CCCCCC)CCCCCCCC)CCCOC(=O)NCCCN(C)C (centres unmarked) ?
Reply: 7.94E+05

Query: Any idea what In vivo Expression (Whole Body) was measured for CCCCCCCCCC(=O)OCCCCCCCN(CCCCCCCCOC(=O)C(CCCCCC)CCCCCCCC)CCCOC(=O)NCCN1CCCC1 (centres unmarked) ?
Reply: 1.85E+06

Query: Any idea what In vivo Expression (Whole Body) was measured for CCCCCCCCC(CCCCCC)C(=O)OCCCCCCCCN(CCCCCCCCCCC(=O)OCCCCCC)CCOC(=O)NCCN(C)C (centres unmarked) ?
Reply: 6.22E+08

Query: Any idea what In vivo Expression (Whole Body) was measured for CCCCCCCCCC(=O)OCCCCCCCN(CCCCCCCCOC(=O)C(CCCCCC)CCCCCCCC)CCOC(=O)NCc1ncc[nH]1 (centres unmarked) ?
Reply: 9.90E+06

Query: Any idea what In vivo Expression (Whole Body) was measured for CCCCC/C=C\C/C=C\CCCCCCCCN(CCCCCCCC/C=C\C/C=C\CCCCC)CCOC(=O)NCc1ncc[nH]1 ?
Reply: 1.15E+04

Query: Any idea what In vivo Expression (Whole Body) was measured for CCCCCCCCCCCOC(=O)CCCCCN(CCCCCCCCOC(=O)C(CCCCCC)CCCCCCCC)CCOC(=O)NCCN1CCCC1 (centres unmarked) ?
Reply: 2.20E+07

Query: Any idea what In vivo Expression (Whole Body) was measured for CCCCCCCCC(CCCCCC)C(=O)OCCCCCCCCN(CCCCCCCCOC(=O)C(CCCCCC)CCCCCCCC)CCCOC(=O)NCCN(C)C (centres unmarked) ?
Reply: 1.53E+08

Query: Any idea what In vivo Expression (Whole Body) was measured for CCCCC/C=C\C/C=C\CCCCCCCCN(CCCCCCCC(=O)OC(CCCCCCCC)CCCCCCCC)CCOC(=O)NCCN1CCCCC1 ?
Reply: 1.14E+09

Query: Any idea what In vivo Expression (Whole Body) was measured for CCCCC/C=C\C/C=C\CCCCCCCCN(CCCCCCCC/C=C\CCCCCCCC)CCOC(=O)NCc1ncc[nH]1 ?
Reply: 1.34E+08

Query: Any idea what In vivo Expression (Whole Body) was measured for CCCCCCCCCCCOC(=O)CCCCCN(CCCCCCCCOC(=O)C(CCCCCC)CCCCCCCC)CCOC(=O)NCCN(C)C (centres unmarked) ?
Reply: 1.45E+07

Query: Any idea what In vivo Expression (Whole Body) was measured for CCCCCCCCC(CCCCCC)C(=O)OCCCCCCCCN(CCCCCCCCCCC(=O)OCCCCCC)CCOC(=O)NCCN1CCN(C)CC1 (centres unmarked) ?
Reply: 1.92E+06

Query: Any idea what In vivo Expression (Whole Body) was measured for CCCCCCCC/C=C\CCCCCCCCN(CCCCCCCCOC(=O)C(CCCCCC)CCCCCCCC)CCOC(=O)NCCCN(CC)CC (centres unmarked) ?
Reply: 2.11E+06

Query: Any idea what In vivo Expression (Whole Body) was measured for CCCCCCCCCCCOC(=O)CCCCCN(CCCCCCCC(=O)OC(CCCCCCCC)CCCCCCCC)CCOC(=O)NCCCn1ccnc1 ?
Reply: 7.96E+06

Query: Any idea what In vivo Expression (Whole Body) was measured for CCCCCCOC(=O)CCCCCCCCCCN(CCCCCCCCCCC(=O)OCCCCCC)CCOC(=O)NCCCN(CC)CC ?
Reply: 1.84E+05

====

Experiment: LNP size and polydispersity index (PDI) by dynamic light scattering
Assay type: physicochemical
Settings: LNP with cirRNA (SEQ ID NO: 1)
Friendly reminder: PDI below 0.2 is met, at or above is not met.

Query: Criterion: PDI strictly below 0.2. Is it met by CCCCCCCCCCCOC(=O)CCCCCN(CCCCCCCC(=O)OC(CCCCCCCC)CCCCCCCC)CCOC(=O)NCc1ncc[nH]1 ?
Reply: met

Query: Criterion: PDI strictly below 0.2. Is it met by CCCCCCCCC(CCCCCCCC)OC(=O)CCCCCCCN(CCCCCCCCOC(=O)C(CCCCCC)CCCCCCCC)CCOC(=O)NCCCn1ccnc1 (stereo not shown) ?
Reply: met

Query: Criterion: PDI strictly below 0.2. Is it met by CCCCCCCCCC(=O)OCCCCCCCN(CCCCCCCOC(=O)CCCCCCCCC)CCOC(=O)NCCN1CCN(C)CC1 ?
Reply: met

Query: Criterion: PDI strictly below 0.2. Is it met by CCCCC/C=C\C/C=C\CCCCCCCCN(CCCCCCCC(=O)OC(CCCCCCCC)CCCCCCCC)CCOC(=O)NCc1ncc[nH]1 ?
Reply: met

Query: Criterion: PDI strictly below 0.2. Is it met by CCCCC/C=C\C/C=C\CCCCCCCCN(CCCCCC(=O)OCCCCCCCCCCC)CCOC(=O)NCc1ncc[nH]1 ?
Reply: met

Query: Criterion: PDI strictly below 0.2. Is it met by CCCCC/C=C\CCOC(=O)CCCCCN(CCCCCCCCOC(=O)C(CCCCCC)CCCCCCCC)CCOC(=O)NCCN1CCCC1 (stereo not shown) ?
Reply: not met

Query: Criterion: PDI strictly below 0.2. Is it met by CCCCCCCCC(CCCCCC)C(=O)OCCCCCCCCN(CCCCCCCCOC(=O)C(CCCCCC)CCCCCCCC)CCCNCCN(C)C (stereo not shown) ?
Reply: not met

====

Tested on: MCP-I
Assay: MCP-I cytokine elevation in serum
Assay type: in vivo
Conditions: cirRNA (SEQ ID NO: 1) LNPs, mice, 24 hours
Assay Endpoint: MCP-I in Sera 24 hours After 0.5 MPK Injection (pg/mL)
Report only the number, with the unit pg/mL understood.

Query: Any idea what MCP-I in Sera 24 hours After 0.5 MPK Injection was measured for CCCCCCCCCC(=O)OCCCCCCCN(CCCCCCCCOC(=O)C(CCCCCC)CCCCCCCC)CCOC(=O)NCCN1CCCCC1 (stereo not drawn) ?
Reply: 197.30

Query: Any idea what MCP-I in Sera 24 hours After 0.5 MPK Injection was measured for CCCCCCCCCC(=O)OCCCCCCCN(CCCCCCCCOC(=O)C(CCCCCC)CCCCCCCC)CCOC(=O)NCCN1CCCC1 (stereo not drawn) ?
Reply: 78.52

Query: Any idea what MCP-I in Sera 24 hours After 0.5 MPK Injection was measured for CCCCC/C=C\C/C=C\CCCCCCCCN(CCCCCCCC(=O)OC(CCCCCCCC)CCCCCCCC)CCOC(=O)NCCN(C)C ?
Reply: 272.54

Data origin, for the record: patent US12691070B2
